assay: Inhibition of PDGFR-beta driven proliferation of rat A10 cells after 68 hrs in presence of rat recombinant PDGF-BB by cell titer-glo luminescence assay
pIC50: −log10 of the molar value.
Please use Y whenever pIC50 is not below 8, and N whenever it is.

| Compound | Classification |
| --- | --- |
| CCN(CCNC(=O)c1ccc(F)c(NC(=O)c2cnc3cc(-c4ccnn4C)ccn23)c1)C(C)(C)C | N |
| Cn1nccc1-c1ccn2c(C(=O)Nc3cc(C(=O)NCC4CCC(C)(C)O4)ccc3F)cnc2c1 (configuration not stated) | Y |
| Cn1cc(-c2ccn3c(C(=O)Nc4cc(C(=O)NCCN5CCCC5(C)C)ccc4F)cnc3c2)cn1 | Y |
| CN1CCN(c2ccccc2CNC(=O)c2ccc(F)c(NC(=O)c3cnc4cc(-c5cnn(C)c5)ccn34)c2)CC1 | Y |
| Cc1ccc(NC(=O)c2ccc(CN3CCN(C)CC3)cc2)cc1Nc1nccc(-c2cccnc2)n1 | N |
| Cc1ncc(C(=O)NCc2ccccc2N2CCN(C)CC2)cc1NC(=O)c1cnn2cc(-c3ccnn3C)ccc12 | N |
| CN1CCN(c2ccccc2CNC(=O)c2ccc(F)c(NC(=O)c3cnc4cc(-c5cc[nH]n5)ccn34)c2)CC1 | N |
| Cn1nccc1-c1ccn2c(C(=O)Nc3cc(C(=O)NCc4ccc(F)c(F)c4)ccc3F)cnc2c1 | Y |
| CN(CCNC(=O)c1ccc(F)c(NC(=O)c2cnc3cc(-c4ccnn4C)ccn23)c1)C(C)(C)C | N |
| CN1CCN(c2ccccc2CNC(=O)c2ccc(F)c(NC(=O)c3cnc4ccccn34)c2)CC1 | N |

----------
pIC50 values for the compounds below.
test: Inhibition of PDGFR-beta driven proliferation of rat A10 cells after 68 hrs in presence of rat recombinant PDGF-BB by cell titer-glo luminescence assay
pIC50: −log10 of the molar value.

| Sample Smiles | pIC50 |
| --- | --- |
| CN1CCN(c2ccccc2CNC(=O)c2ccc(F)c(NC(=O)c3cnc4cc(-c5cccnc5)ccn34)c2)CC1 | 8.10 |
| Cc1ccc(C(=O)NCc2ccccc2)cc1NC(=O)c1cnn2ccccc12 | 7.92 |
| C[C@@H]1CCC[C@H](C)N1CCNC(=O)c1ccc(F)c(NC(=O)c2cnc3cc(-c4ccnn4C)ccn23)c1 | 8.06 |
| CN1CCN(c2ccccc2CNC(=O)c2ccc(F)c(NC(=O)c3cnc4cc(-c5ccnn5C)ccn34)c2)CC1 | 8.04 |
| Cc1ncc(C(=O)NCCN2CCCC2(C)C)cc1NC(=O)c1cnn2cc(-c3cnn(C)c3)ccc12 | 7.89 |
| Cn1nccc1-c1ccn2c(C(=O)Nc3cc(C(=O)NCCN4CCCC4(C)C)ccc3F)cnc2c1 | 8.02 |
| CN1CCN(c2ccccc2CNC(=O)c2ccc(F)c(NC(=O)c3cnn4cc(-c5ccnn5C)ccc34)c2)CC1 | 8.00 |
